- TARGET_OR_TEST_SYSTEM: T1, recombinant human CD33 protein (Sino Biologicals) (human, UniProt P20138 18-259)
- T1 construct: Bought protein; also called recombinant CD33
- T1 sequence (P20138 18-259 limits assumed): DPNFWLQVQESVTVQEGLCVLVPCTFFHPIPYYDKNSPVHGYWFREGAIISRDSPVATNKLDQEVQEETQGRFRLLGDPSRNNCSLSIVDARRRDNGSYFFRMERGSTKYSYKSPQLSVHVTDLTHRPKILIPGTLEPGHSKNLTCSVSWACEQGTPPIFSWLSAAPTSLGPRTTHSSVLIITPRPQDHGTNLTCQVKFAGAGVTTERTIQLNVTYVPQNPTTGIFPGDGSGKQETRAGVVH
- PROTOCOL_TEXT: ELISA, plate coated with recombinant CD33
MEASURED_QUANTITY: pEC50
Expect pEC50 as a plain number equal to -log10 of the molar concentration.

Take a look at these entries with their results.
| BINDER | pEC50 |
| --- | --- |
| anti-CD33 antibody 6C7H47 (antibody, V domains shown, VH/VL only) VH: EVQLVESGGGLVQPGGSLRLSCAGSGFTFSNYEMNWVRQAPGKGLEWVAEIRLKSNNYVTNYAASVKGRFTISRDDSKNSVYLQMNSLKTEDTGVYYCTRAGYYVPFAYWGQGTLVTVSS VL: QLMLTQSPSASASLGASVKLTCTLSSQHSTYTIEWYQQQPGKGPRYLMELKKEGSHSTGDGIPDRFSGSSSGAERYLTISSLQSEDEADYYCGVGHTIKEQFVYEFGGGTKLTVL | 9.66 |
| anti-CD33 antibody 6C7H50 (antibody, V domains shown, VH/VL only) VH: EVQLVESGGGLVQPGGSLRLSCAASGFTFSEYDMLWVRQAPGKGLEWVGEIRLKSNNYVTNYAASVKGRFTISRDDSKNSVYLQMNSLKTEDTGVYYCTRAGYYVPFAYWGQGTLVTVSS VL: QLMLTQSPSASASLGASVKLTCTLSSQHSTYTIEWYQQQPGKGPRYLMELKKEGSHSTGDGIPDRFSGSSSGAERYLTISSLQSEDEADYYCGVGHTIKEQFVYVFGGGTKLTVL | 9.66 |
| anti-CD33 antibody 6C7H21 (antibody, V domains shown, VH/VL only) VH: EVQLVESGGGLVQPGGSLRLSCAGSGFTFSNYQMNWVRQAPGKGLEWVAEIRLKSNNYVTNYAASVKGRFTISRDDSKNSVYLQMNSLKTEDTGVYYCTRAGYYVPFAYWGQGTLVTVSS VL: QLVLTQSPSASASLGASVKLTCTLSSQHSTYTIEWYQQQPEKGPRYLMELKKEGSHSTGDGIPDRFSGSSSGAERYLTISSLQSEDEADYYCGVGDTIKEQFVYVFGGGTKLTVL | 9.80 |
| anti-CD33 antibody 6C7H40 (antibody, V domains shown, VH/VL only) VH: EVQLVESGGGLVQPGGSLRLSCAASGFTFSEYDMLWVRQAPGKGLEWVGEIRLKSNNYVTNYAASVKGRFTISRDDTKNSVYLQMNSLKTEDTGVYYCTRAGYYVPFAYWGQGTLVTVSS VL: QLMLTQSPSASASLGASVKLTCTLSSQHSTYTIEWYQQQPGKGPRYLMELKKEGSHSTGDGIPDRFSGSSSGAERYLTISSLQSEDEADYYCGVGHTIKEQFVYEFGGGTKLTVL | 9.72 |

In: // query pEC50 value for entry anti-CD33 antibody 6C7H37 (antibody, V domains shown, VH/VL only) VH: EVQLVESGGGLVQPGGSLRLSCAASGFTFSEYAMLWVRQAPGKGLEWVGEIRLKSNNYVTNYAASVKGRFTISRDDSKNSVYLQMNSLKTEDTGVYYCTRAGYYVPFTYWGQGTLVTVSS VL: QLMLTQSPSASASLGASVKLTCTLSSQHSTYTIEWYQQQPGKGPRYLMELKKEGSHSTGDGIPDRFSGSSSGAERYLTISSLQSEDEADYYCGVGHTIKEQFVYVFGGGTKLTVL
Out: 9.59
